Test system: Sheep red blood cells
Type: cell-based
Conditions: red cells of sheep, 1 h, 64 μg mL^−1
Bridge positions count the residues as written; N and C are the ends. Square brackets hold non-standard residues; d marks the D form. Peptide text beside a SMILES is read from it. * marks the point of attachment. Decanoyl = CCCCCCCCCC(=O)*; dOrn = NCCC[C@@H](N)C(=O)O; Orn = NCCC[C@H](N)C(=O)O
READOUT NAME: % Hemolytic activity, sheep red blood cells (%)

MOLECULE	TEST RESULT
CCCCCCCCCC(=O)N[C@H](CO)C(=O)N[C@H](Cc1ccc(O)cc1)C(=O)N[C@H](Cc1c[nH]c2ccccc12)C(=O)N[C@H](CCCN)C(=O)N[C@@H](CCCN)C(=O)NCC(=O)N[C@H](CCCN)C(=O)N[C@@H](Cc1c[nH]c2ccccc12)C(=O)N[C@@H]1C(=O)N[C@@H]([C@@H](C)CC)C(=O)N[C@@H](CC(N)=O)C(=O)NCC(=O)NCC(=O)O[C@@H]1C [Compound 23] (Decanoyl-[dS][dY][dW][dOrn][Orn]G[dOrn]WTINGG; ester 9-C)	2.1

###

Item-by-item account of Antimicrobial activity (MIC) A. baumannii ATCC 17961
Tested on: A. baumannii ATCC 17961
Type: cell-based, Acinetobacter baumannii
Details: ATCC 17961, 18 h
Bridge positions count the residues as written; N and C are the ends. Square brackets hold non-standard residues; d marks the D form. Peptide text beside a SMILES is read from it. * marks the point of attachment. Octanoyl(7-Me) = CC(C)CCCCCC(=O)*; Palmitoyl = CCCCCCCCCCCCCCCC(=O)*; Myristoyl = CCCCCCCCCCCCCC(=O)*; Lauroyl = CCCCCCCCCCCC(=O)*; Decanoyl = CCCCCCCCCC(=O)*; dOrn = NCCC[C@@H](N)C(=O)O; Orn = NCCC[C@H](N)C(=O)O; Hexanoyl = CCCCCC(=O)*
READOUT NAME: Antimicrobial activity (MIC) A. baumannii ATCC 17961 (µg/mL)

COMPOUND	TEST SYSTEM	COMPARISON OPERATOR	TEST RESULT
CCCCCCCCCCCCCC(=O)N[C@H](CC(N)=O)C(=O)N[C@H](Cc1ccc(O)cc1)C(=O)N[C@H](Cc1c[nH]c2ccccc12)C(=O)N[C@H](CCCN)C(=O)N[C@@H](CCCN)C(=O)NCC(=O)N[C@H](CCCN)C(=O)N[C@@H](Cc1c[nH]c2ccccc12)C(=O)N[C@@H]1C(=O)N[C@@H]([C@@H](C)CC)C(=O)NCC(=O)N[C@@H](CO)C(=O)O[C@@H]1C [Compound 16] (Myristoyl-[dN][dY][dW][dOrn][Orn]G[dOrn]WTIGS; ester 9-C)	A. baumannii ATCC 17961	=	4
CCCCCCCCCC(=O)N[C@H](CC(N)=O)C(=O)N[C@H](Cc1ccc(O)cc1)C(=O)N[C@H](Cc1c[nH]c2ccccc12)C(=O)N[C@H](CCCN)C(=O)N[C@@H](CCCN)C(=O)NCC(=O)N[C@H](CCCN)C(=O)N[C@@H](Cc1c[nH]c2ccccc12)C(=O)N[C@@H]1C(=O)N[C@@H]([C@@H](C)CC)C(=O)NCC(=O)N[C@@H](CO)C(=O)O[C@@H]1C [Compound 14] (Decanoyl-[dN][dY][dW][dOrn][Orn]G[dOrn]WTIGS; ester 9-C)	A. baumannii ATCC 17961	=	4
CC[C@H](C)[C@@H]1NC(=O)[C@@H](NC(=O)[C@H](Cc2c[nH]c3ccccc23)NC(=O)[C@@H](CCCN)NC(=O)CNC(=O)[C@H](CCCN)NC(=O)[C@@H](CCCN)NC(=O)[C@@H](Cc2c[nH]c3ccccc23)NC(=O)[C@@H](Cc2ccc(O)cc2)NC(=O)[C@@H](CO)NC(C)=O)[C@@H](C)OC(=O)CNC(=O)CNC(=O)[C@H](CC(N)=O)NC1=O [Compound 19] (Ac-[dS][dY][dW][dOrn][Orn]G[dOrn]WTINGG; ester 9-C)	A. baumannii ATCC 17961	>	32
CCCCCCCCCCCC(=O)N[C@H](CO)C(=O)N[C@H](Cc1ccc(O)cc1)C(=O)N[C@H](Cc1c[nH]c2ccccc12)C(=O)N[C@H](CCCN)C(=O)N[C@@H](CCCN)C(=O)NCC(=O)N[C@H](CCCN)C(=O)N[C@@H](Cc1c[nH]c2ccccc12)C(=O)N[C@@H]1C(=O)N[C@@H]([C@@H](C)CC)C(=O)N[C@@H](CC(N)=O)C(=O)NCC(=O)NCC(=O)O[C@@H]1C [Compound 24] (Lauroyl-[dS][dY][dW][dOrn][Orn]G[dOrn]WTINGG; ester 9-C)	A. baumannii ATCC 17961	=	2
CCCCCCCCCCCCCCCC(=O)N[C@H](CC(N)=O)C(=O)N[C@H](Cc1ccc(O)cc1)C(=O)N[C@H](Cc1c[nH]c2ccccc12)C(=O)N[C@H](CCCN)C(=O)N[C@@H](CCCN)C(=O)NCC(=O)N[C@H](CCCN)C(=O)N[C@@H](Cc1c[nH]c2ccccc12)C(=O)N[C@@H]1C(=O)N[C@@H]([C@@H](C)CC)C(=O)NCC(=O)N[C@@H](CO)C(=O)O[C@@H]1C [Compound 17] (Palmitoyl-[dN][dY][dW][dOrn][Orn]G[dOrn]WTIGS; ester 9-C)	A. baumannii ATCC 17961	=	32
CCCCCCCCCCCC(=O)N[C@H](CC(N)=O)C(=O)N[C@H](Cc1ccc(O)cc1)C(=O)N[C@H](Cc1c[nH]c2ccccc12)C(=O)N[C@H](CCCN)C(=O)N[C@@H](CCCN)C(=O)NCC(=O)N[C@H](CCCN)C(=O)N[C@@H](Cc1c[nH]c2ccccc12)C(=O)N[C@@H]1C(=O)N[C@@H]([C@@H](C)CC)C(=O)NCC(=O)N[C@@H](CO)C(=O)O[C@@H]1C [Compound 15] (Lauroyl-[dN][dY][dW][dOrn][Orn]G[dOrn]WTIGS; ester 9-C)	A. baumannii ATCC 17961	=	4
CCCCCC(=O)N[C@H](CO)C(=O)N[C@H](Cc1ccc(O)cc1)C(=O)N[C@H](Cc1c[nH]c2ccccc12)C(=O)N[C@H](CCCN)C(=O)N[C@@H](CCCN)C(=O)NCC(=O)N[C@H](CCCN)C(=O)N[C@@H](Cc1c[nH]c2ccccc12)C(=O)N[C@@H]1C(=O)N[C@@H]([C@@H](C)CC)C(=O)N[C@@H](CC(N)=O)C(=O)NCC(=O)NCC(=O)O[C@@H]1C [Compound 21] (Hexanoyl-[dS][dY][dW][dOrn][Orn]G[dOrn]WTINGG; ester 9-C)	A. baumannii ATCC 17961	=	16
CC[C@H](C)[C@@H]1NC(=O)[C@@H](NC(=O)[C@H](Cc2c[nH]c3ccccc23)NC(=O)[C@@H](CCCN)NC(=O)CNC(=O)[C@H](CCCN)NC(=O)[C@@H](CCCN)NC(=O)[C@@H](Cc2c[nH]c3ccccc23)NC(=O)[C@@H](Cc2ccc(O)cc2)NC(=O)[C@@H](CO)NC(=O)CCCCCC(C)C)[C@@H](C)OC(=O)CNC(=O)CNC(=O)[C@H](CC(N)=O)NC1=O [Compound 2, laterocidine] ({Octanoyl(7-Me)}-[dS][dY][dW][dOrn][Orn]G[dOrn]WTINGG; ester 9-C; N-terminus assumed)	A. baumannii ATCC 17961	=	2
CCCCCCCCCC(=O)N[C@H](CO)C(=O)N[C@H](Cc1ccc(O)cc1)C(=O)N[C@H](Cc1c[nH]c2ccccc12)C(=O)N[C@H](CCCN)C(=O)N[C@@H](CCCN)C(=O)NCC(=O)N[C@H](CCCN)C(=O)N[C@@H](Cc1c[nH]c2ccccc12)C(=O)N[C@@H]1C(=O)N[C@@H]([C@@H](C)CC)C(=O)N[C@@H](CC(N)=O)C(=O)NCC(=O)NCC(=O)O[C@@H]1C [Compound 23] (Decanoyl-[dS][dY][dW][dOrn][Orn]G[dOrn]WTINGG; ester 9-C)	A. baumannii ATCC 17961	=	2

###

System: S. aureus USA300
Type: cell-based, Staphylococcus aureus
Details: USA300, 18 h
Bridge positions count the residues as written; N and C are the ends. Square brackets hold non-standard residues; d marks the D form. Peptide text beside a SMILES is read from it. * marks the point of attachment. Decanoyl = CCCCCCCCCC(=O)*; dOrn = NCCC[C@@H](N)C(=O)O; Orn = NCCC[C@H](N)C(=O)O; Hexanoyl = CCCCCC(=O)*
Item-by-item account of Antimicrobial activity (MIC) S. aureus USA300
READOUT NAME: Antimicrobial activity (MIC) S. aureus USA300

MOLECULE	TEST RESULT
CCCCCC(=O)N[C@H](CC(N)=O)C(=O)N[C@H](Cc1ccc(O)cc1)C(=O)N[C@H](Cc1c[nH]c2ccccc12)C(=O)N[C@H](CCCN)C(=O)N[C@@H](CCCN)C(=O)NCC(=O)N[C@H](CCCN)C(=O)N[C@@H](Cc1c[nH]c2ccccc12)C(=O)N[C@@H]1C(=O)N[C@@H]([C@@H](C)CC)C(=O)NCC(=O)N[C@@H](CO)C(=O)O[C@@H]1C [Compound 12] (Hexanoyl-[dN][dY][dW][dOrn][Orn]G[dOrn]WTIGS; ester 9-C)	>32 µg/mL
CCCCCCCCCC(=O)N[C@H](CO)C(=O)N[C@H](Cc1ccc(O)cc1)C(=O)N[C@H](Cc1c[nH]c2ccccc12)C(=O)N[C@H](CCCN)C(=O)N[C@@H](CCCN)C(=O)NCC(=O)N[C@H](CCCN)C(=O)N[C@@H](Cc1c[nH]c2ccccc12)C(=O)N[C@@H]1C(=O)N[C@@H]([C@@H](C)CC)C(=O)N[C@@H](CC(N)=O)C(=O)NCC(=O)NCC(=O)O[C@@H]1C [Compound 23] (Decanoyl-[dS][dY][dW][dOrn][Orn]G[dOrn]WTINGG; ester 9-C)	>32 µg/mL
CC[C@H](C)[C@@H]1NC(=O)[C@@H](NC(=O)[C@H](Cc2c[nH]c3ccccc23)NC(=O)[C@@H](CCCN)NC(=O)CNC(=O)[C@H](CCCN)NC(=O)[C@@H](CCCN)NC(=O)[C@@H](Cc2c[nH]c3ccccc23)NC(=O)[C@@H](Cc2ccc(O)cc2)NC(=O)[C@@H](CO)NC(C)=O)[C@@H](C)OC(=O)CNC(=O)CNC(=O)[C@H](CC(N)=O)NC1=O [Compound 19] (Ac-[dS][dY][dW][dOrn][Orn]G[dOrn]WTINGG; ester 9-C)	>32 µg/mL
